Field: MOR agonist activity, [35S]GTPγS binding to Gαo. Provide a value for each of the compounds that follow.
# target: mu opiate receptor (MOR) (Rattus norvegicus)
# Construct: from tissue; host or cells: striatal membrane preparation (rat striatum)
# Sequence (P33535 whole entry): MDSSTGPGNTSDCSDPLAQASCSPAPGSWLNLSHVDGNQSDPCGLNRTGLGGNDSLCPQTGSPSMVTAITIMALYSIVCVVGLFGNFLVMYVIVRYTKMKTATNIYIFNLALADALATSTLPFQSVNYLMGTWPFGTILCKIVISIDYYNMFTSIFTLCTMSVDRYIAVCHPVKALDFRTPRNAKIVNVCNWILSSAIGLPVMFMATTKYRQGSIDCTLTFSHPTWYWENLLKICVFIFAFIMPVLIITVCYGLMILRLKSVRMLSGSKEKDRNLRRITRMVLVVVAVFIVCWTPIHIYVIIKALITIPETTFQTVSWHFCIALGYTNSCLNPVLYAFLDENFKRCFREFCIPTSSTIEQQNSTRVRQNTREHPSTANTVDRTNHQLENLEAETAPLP
# assayProcedure: MOR agonist activity, [35S]GTPγS binding assay using striatal membranes
# Type: biochemical
# Parameters: reference not given here
# conditionsUsed: 1 μM compound + BFNA (1 μM β-funaltrexamine)
Lab book: enter the figure in %, no units written.

(Q) Using the record for CC(=O)c1ccc(S(=O)(=O)N2CCOC23CCN(CC2CC2)CC3)cc1 [Compound C0095M] , report its MOR agonist activity, [35S]GTPγS binding to Gαo.
(A) 107.7

(Q) Again, but for O=C1CNC2(CCNCC2)N1Cc1ccccc1 [Compound C0114M]
(A) 35.9

(Q) // same read-out, input: CC(=O)c1ccc(S(=O)(=O)N2CCOC23CCN(C)CC3)cc1 [Compound C0093M]
(A) 44.0

(Q) Next record, please: CC(=O)c1ccc(S(=O)(=O)N2CC(CN(C)C)OC23CCN(C)CC3)cc1 (stereo not drawn) [Compound C0108M]
(A) 76.9

(Q) Now the same for O=C1CN(Cc2ccccc2)C2(CCN(C3CCCCC3)CC2)N1 [C0137M(P7)]
(A) 55.8

(Q) Now consider COc1ccc(S(=O)(=O)N2CCOC23CCN(C)CC3)cc1 [Compound C0088M] .
(A) 177.1

(Q) How about CN1CCC2(CC1)OCCN2S(=O)(=O)c1ccc(S(C)(=O)=O)cc1 [Compound C0106M] ?
(A) 117.2

(Q) What about O=C1CN(Cc2ccccc2)C2(CCN(CC3CC3)CC2)N1 [Compound C0125M] ?
(A) 159.7

(Q) // same read-out, input: CCOC(=O)CN1CCC2(CC1)OCCN2S(=O)(=O)c1ccc(C(C)=O)cc1 [Compound C0099M]
(A) 114.7

(Q) How about this compound: C[C@@H](NC(=O)[C@@H](N)Cc1ccc(O)cc1)C(=O)NCC(=O)N(C)[C@@H](Cc1ccccc1)C(=O)NCCO [DAMGO, reference compound]
(A) 53.2

(Q) Now the same for `O=[N+]([O-])c1ccc(S(=O)(=O)N2CCC3(CC2)NCCCO3)cc1`
(A) 105.3

(Q) And the next one, CN1CCC2(CC1)NCC(=O)N2Cc1ccccc1 [Compound C0105M] ?
(A) 73.1

(Q) Another compound to check: O=C1CN(Cc2ccccc2)C2(CCNCC2)N1 [Compound C0115M]
(A) 118.4

(Q) And for O=C1CN(C2CCc3ccccc3C2)C2(CCN(S(=O)(=O)c3ccccc3)CC2)N1 (stereo not drawn) [C0136M(P5)] ?
(A) 74.5

(Q) Field entry: `CC(=O)c1ccc(S(=O)(=O)N2CCC3(CC2)OCCN3S(C)(=O)=O)cc1`
(A) 86.3

(Q) Likewise for `O=[N+]([O-])c1ccc(S(=O)(=O)N2CCC3(CC2)NCCS3)cc1` ?
(A) 59.1

(Q) Moving on to `COc1ccc(S(=O)(=O)N2CCOC23CCNCC3)cc1`
(A) 72.2

(Q) One more compound: CN1CCC2(CC1)NC(=O)CN2Cc1ccccc1 [Compound C0104M]
(A) 143.8
